The reported numbers originate from ChEMBL document CHEMBL4680257.

Test: Cytotoxicity against human HHL-5 cells assessed as reduction in cell viability incubated for 24 hrs by MTT assay
Format: cell-based
Settings: HHL-5, 24 h
value-kind: IC50 (µM)
// return numeric value only (unit: µM, not printed)

Find the recorded IC50 belonging to Cl.NC1=NC(c2ccc(F)cc2)C2=C(N1)/C(=C/c1ccc(F)cc1)CN(S(=O)(=O)c1ccc(F)cc1)C2 (centres undefined) and report it.
11.1

Another compound to look at: Cl.NC1=NC(c2ccc(F)cc2)C2=C(N1)/C(=C/c1ccc(F)cc1)CN(S(=O)(=O)c1ccc([N+](=O)[O-])cc1)C2 (centres undefined)
10.3

Another compound to look at: O=C1/C(=C/c2ccc(F)cc2)CN(S(=O)(=O)c2ccc([N+](=O)[O-])cc2)C/C1=C\c1ccc(F)cc1
7.8

Another compound to look at: O=C1/C(=C/c2ccc(F)cc2)CN(S(=O)(=O)c2ccc(Cl)cc2)C/C1=C\c1ccc(F)cc1
17.7

Another compound to look at: O=C1/C(=C/c2cccc(F)c2)CN(S(=O)(=O)c2ccc(C(F)(F)F)cc2)C/C1=C\c1cccc(F)c1
13.4

Another compound to look at: Cl.NC1=NC(c2cccc(F)c2)C2=C(N1)/C(=C/c1cccc(F)c1)CN(S(=O)(=O)c1ccccc1)C2 (centres undefined)
11.3

Another compound to look at: Cl.NC1=NC(c2ccc(F)cc2)C2=C(N1)/C(=C/c1ccc(F)cc1)CN(S(=O)(=O)c1ccc(Cl)cc1)C2 (centres undefined)
27.1

Another compound to look at: O=C1/C(=C/c2ccc(F)cc2)CN(S(=O)(=O)c2ccc(F)cc2)C/C1=C\c1ccc(F)cc1
11.7

Another compound to look at: O=C1/C(=C/c2ccccc2F)CN(S(=O)(=O)c2ccc([N+](=O)[O-])cc2)C/C1=C\c1ccccc1F
6.6

Another compound to look at: O=C1/C(=C/c2ccccc2F)CN(S(=O)(=O)c2ccccc2)C/C1=C\c1ccccc1F
27.2

Another compound to look at: O=C1/C(=C/c2ccccc2F)CN(S(=O)(=O)c2ccc(Br)cc2)C/C1=C\c1ccccc1F
14

Another compound to look at: O=C1/C(=C/c2ccc(F)cc2)CN(S(=O)(=O)c2ccc(C(F)(F)F)cc2)C/C1=C\c1ccc(F)cc1
16.1

Another compound to look at: Cc1ccc(S(=O)(=O)N2C/C(=C\c3ccc(F)cc3)C(=O)/C(=C/c3ccc(F)cc3)C2)cc1
6

Another compound to look at: N#Cc1ccc(S(=O)(=O)N2C/C(=C\c3ccccc3F)C(=O)/C(=C/c3ccccc3F)C2)cc1
13.6
